- Protocol Details: Displacement of [3H]flumazenil from GABAA/BzR complex in bovine cerebral cortex membrane
- Format: cell membranes, Bos taurus
Metric Name: pKi
# pKi is unitless: minus log10 of the molar concentration; print number only

Worked set:
Exam item: Looking for the measured pKi of CN1C(=O)CN=C(c2ccccc2)c2cc(Cl)ccc21 , can you help?
Marked response: 8.00

Exam item: Looking for the measured pKi of O=C(c1cccs1)c1cnn2c1nnc1ccc(Oc3ccccc3)cc12 , can you help?
Marked response: 7.83

Exam item: Looking for the measured pKi of O=C(c1ccco1)c1cnn2c1n[n+]([O-])c1ccc(Oc3ccccc3)cc12 , can you help?
Marked response: 8.15

Exam item: Looking for the measured pKi of O=C(c1ccco1)c1cnn2c1n[n+]([O-])c1ccc(OCc3ccccc3)cc12 , can you help?
Marked response: 8.85

New cases:
Exam item: Looking for the measured pKi of CCOc1ccc2c(c1)n1ncc(C(=O)c3cccnc3)c1n[n+]2[O-] , can you help?
Marked response: 5.70

Exam item: Looking for the measured pKi of O=C(c1ccsc1)c1cnn2c1n[n+]([O-])c1ccc(Cl)cc12 , can you help?
Marked response: 6.92
